All figures here come from patent EP4737449A1.

For each entry below, report its SC150 value.
SYSTEM: p53-Y220C mutant protein (Homo sapiens, UniProt P04637, Y220C)
Construct: The recombinant Y220C p53 DBD protein with his-tag
ASSAY: In vitro DNA binding activity assay (TR-FRET)
Assay type: biochemical
CONDITION: concentration required to increase the binding activity of protein to DNA by 50%
One number for each entry, in nM.

Below are some compounds; for each one, tell me its SC150.
1. CC(C)N1CC[C@@H](Nc2cccc3c(CC(F)(F)F)c(C#CCNC(=O)c4cnn(C(C)(C)C)c4N)nn23)[C@@H](F)C1
2. CC(C)(C)n1ncc(C(=O)NCC#Cc2nn3c(N[C@@H]4CCN(C5CC5)C[C@@H]4F)cccc3c2CC(F)(F)F)c1N
3. CCn1ncc(C(=O)NCC#Cc2nn3c(N[C@@H]4CCN(C)C[C@@H]4F)cccc3c2CC(F)(F)F)c1Cl
4. CN1CC[C@@H](Nc2cccc3c(CC(F)(F)F)c(C#CCNC(=O)c4cnn(CC#N)c4)nn23)[C@@H](F)C1

Result:
1. 3
2. 18
3. 25
4. 17
